Property: Remaining activity [%]; scope: individual binders
- study.system: VLP2 (virus-like particles, capsid protein particles of AAV serotype 2) (AAV serotype 2 (AAV2)) (UniProt P03135)
- Sequence (P03135 whole entry): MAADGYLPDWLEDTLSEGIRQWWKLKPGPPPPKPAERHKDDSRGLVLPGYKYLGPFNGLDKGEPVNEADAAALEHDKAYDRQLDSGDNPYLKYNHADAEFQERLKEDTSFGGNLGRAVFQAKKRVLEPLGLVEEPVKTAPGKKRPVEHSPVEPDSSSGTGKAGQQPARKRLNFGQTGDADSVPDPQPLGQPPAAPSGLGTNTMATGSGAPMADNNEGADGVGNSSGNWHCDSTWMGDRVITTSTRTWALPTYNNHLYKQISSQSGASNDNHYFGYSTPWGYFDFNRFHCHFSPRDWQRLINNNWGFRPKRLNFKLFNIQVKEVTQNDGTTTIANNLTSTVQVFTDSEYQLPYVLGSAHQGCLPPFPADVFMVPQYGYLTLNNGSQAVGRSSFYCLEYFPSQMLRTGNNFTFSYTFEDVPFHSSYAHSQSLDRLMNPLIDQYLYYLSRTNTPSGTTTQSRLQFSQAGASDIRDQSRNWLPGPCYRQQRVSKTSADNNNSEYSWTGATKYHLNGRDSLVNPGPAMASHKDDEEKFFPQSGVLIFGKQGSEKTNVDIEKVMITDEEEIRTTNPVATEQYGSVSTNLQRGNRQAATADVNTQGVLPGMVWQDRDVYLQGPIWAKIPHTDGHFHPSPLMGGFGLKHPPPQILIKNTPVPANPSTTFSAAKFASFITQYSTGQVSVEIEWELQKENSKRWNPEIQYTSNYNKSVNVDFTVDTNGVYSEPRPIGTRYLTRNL
- procedure.details: ELISA on immobilised VLP2 (culture supernatant, anti-His detection); A450 after 1:1 0.5 M NaOH, 30 min, 30°C divided by A450 untreated

| binder | Remaining activity [%] |
| --- | --- |
| AVR21 with I(V)382I (receptor) MGSAGESDQITLPKHEAQLNVYVLLVPPKGEASTYDWQLITHPRDYSGEMEGEHSQILKLSNLTPGLYEYRAIVEGQNAHSEGYVNVTVEPEPRKNRPPIAIVSPQFQEISLPTTSTVIDGSQSTDDDKIVQYHWEELKGPLREEKISEDTAILKLSQLVPGNYTFRLTVVDTDGATDSTTADLTVNKAVDHHHHHH | 32.8% |
| AVR21 with E378G (receptor) MGSAGESDQITLPKHEAQLNVYVLLVPPKGEASTYDWQLITHPRDYSGEMEGEHSQILKLSNLTPGLYGYRAVVEGQNAHSEGYVNVTVEPEPRKNRPPIAIVSPQFQEISLPTTSTVIDGSQSTDDDKIVQYHWEELKGPLREEKISEDTAILKLSQLVPGNYTFRLTVVDTDGATDSTTADLTVNKAVDHHHHHH | 58% |
| AVR21 with L369S (receptor) MGSAGESDQITLPKHEAQLNVYVLLVPPKGEASTYDWQLITHPRDYSGEMEGEHSQILKSSNLTPGLYEYRAVVEGQNAHSEGYVNVTVEPEPRKNRPPIAIVSPQFQEISLPTTSTVIDGSQSTDDDKIVQYHWEELKGPLREEKISEDTAILKLSQLVPGNYTFRLTVVDTDGATDSTTADLTVNKAVDHHHHHH | 51.4% |
| AVR21 with V332A (receptor) MGSAGESDQITLPKHEAQLNVYALLVPPKGEASTYDWQLITHPRDYSGEMEGEHSQILKLSNLTPGLYEYRAVVEGQNAHSEGYVNVTVEPEPRKNRPPIAIVSPQFQEISLPTTSTVIDGSQSTDDDKIVQYHWEELKGPLREEKISEDTAILKLSQLVPGNYTFRLTVVDTDGATDSTTADLTVNKAVDHHHHHH | 57.6% |
| AVR21 with I319N, Y377F (receptor) MGSAGESDQNTLPKHEAQLNVYVLLVPPKGEASTYDWQLITHPRDYSGEMEGEHSQILKLSNLTPGLFEYRAVVEGQNAHSEGYVNVTVEPEPRKNRPPIAIVSPQFQEISLPTTSTVIDGSQSTDDDKIVQYHWEELKGPLREEKISEDTAILKLSQLVPGNYTFRLTVVDTDGATDSTTADLTVNKAVDHHHHHH | 45.1% |
| AVR21 with N329S, K368R, V412A (receptor) MGSAGESDQITLPKHEAQLSVYVLLVPPKGEASTYDWQLITHPRDYSGEMEGEHSQILRLSNLTPGLYEYRAVVEGQNAHSEGYVNVTVEPEPRKNRPPIAIASPQFQEISLPTTSTVIDGSQSTDDDKIVQYHWEELKGPLREEKISEDTAILKLSQLVPGNYTFRLTVVDTDGATDSTTADLTVNKAVDHHHHHH | 37.1% |
| AVR21 with L376P (receptor) MGSAGESDQITLPKHEAQLNVYVLLVPPKGEASTYDWQLITHPRDYSGEMEGEHSQILKLSNLTPGPYEYRAVVEGQNAHSEGYVNVTVEPEPRKNRPPIAIVSPQFQEISLPTTSTVIDGSQSTDDDKIVQYHWEELKGPLREEKISEDTAILKLSQLVPGNYTFRLTVVDTDGATDSTTADLTVNKAVDHHHHHH | 42.6% |
